Study system: T1, SNTB1, Q13884
T1 sequence (Q13884 107-205, limits assumed, looked up): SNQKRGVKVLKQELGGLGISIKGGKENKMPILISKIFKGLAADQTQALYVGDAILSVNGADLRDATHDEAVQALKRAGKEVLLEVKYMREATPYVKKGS
Assay info: holdup assay
Parameters: key: below the threshold = too weak to quantify, mostly under pKd 3.1 to 4
Assay context: plain residues with an end cap or a label only (N-terminal biotin on a linker: ahx)
Recorded endpoint: pKd

- EKQAKGDTEF [CACYBP, Q9HB71]: below the threshold
- QDEKVKESYV [ABCA1, O95477]: 5.22
- TQKFRASTAL [FRMPD1, Q5SYB0]: below the threshold
- TESNLQTSSC [CGN, Q9P2M7]: below the threshold
- HTHSYIETHV [CNKSR2, Q8WXI2]: 4.6
- APSRKLNTEI [TIAM1, Q13009]: below the threshold
- QPRTWLQSPV [RTKN, Q9BST9]: below the threshold
- QNTDDVQTSF [ACE2, Q9BYF1]: below the threshold

-- ask // pKd lookup, key: TEAKLTETNA [MYO18A, Q92614]
-- reply below the threshold
